The measured values listed here are drawn from the supplement of paper PMC7125110.

Catalogue of self-cleavage kobs at 640 uM GlcN6P values
B1: glmS ribozyme (parent)
chain: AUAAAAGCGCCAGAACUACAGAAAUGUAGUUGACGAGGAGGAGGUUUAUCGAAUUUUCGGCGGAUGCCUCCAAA

Variants of: B1
assay procedure: self-cleavage kobs at 640 uM GlcN6P; higher = faster cleavage; RNA array
condition context: with glucosamine-6-phosphate
Fewer inactive variants are shown than the library holds.
A number alone suffices; assume s⁻¹.

Some variants with known self-cleavage kobs at 640 uM GlcN6P results, for comparison:
| mutation | measurement type | measurement units | experimental result |
| --- | --- | --- | --- |
| A15C U65A | self-cleavage kobs at 640 uM GlcN6P | s⁻¹ | 0.000177 |
| U46G G66C | self-cleavage kobs at 640 uM GlcN6P | s⁻¹ | 0.00135 |
| A14U U54G | self-cleavage kobs at 640 uM GlcN6P | s⁻¹ | 0.00128 |
| U45G C58A | self-cleavage kobs at 640 uM GlcN6P | s⁻¹ | 4.61e-05 |
| G29A G40U | self-cleavage kobs at 640 uM GlcN6P | s⁻¹ | 8.95e-05 |
| C11U C58G C68U | self-cleavage kobs at 640 uM GlcN6P | s⁻¹ | 0.000262 |
| U65G U69C C71U | self-cleavage kobs at 640 uM GlcN6P | s⁻¹ | 6.22e-05 |
| C11U A53G | self-cleavage kobs at 640 uM GlcN6P | s⁻¹ | 0.000513 |
| A42G C70A | self-cleavage kobs at 640 uM GlcN6P | s⁻¹ | 0.000154 |

Now consider the entry below.
Q. Reported self-cleavage kobs at 640 uM GlcN6P for C16U U46C A53U : what is it?
A. 0.000328
